- Tested on: Klebsiella aerogenes DSM 30053
- Test name: fold change of Histamine concentration vs plate DMSO controls (fold change (ratio)); higher = more amine produced, active = hit call of the paper (significant change in both replicates, either direction)
- Condition parameters: incubation time: 27 h, anaerobic, 37 °C
Structures can show the parent of a compound that is named as a salt.
Param threshold (1) applies to fold change of Histamine concentration; output label 1 when value >= threshold, label 0 when value < threshold.

>>> group_label("C[C@H](CCC(=O)O)[C@H]1CC[C@H]2[C@@H]3CC[C@@H]4C[C@H](O)CC[C@]4(C)[C@H]3CC[C@]12C [Lithocholic acid] (20 µM)")
"label 0"
>>> group_label("OC[C@H]1OC(O)[C@H](O)[C@@H](O)[C@@H]1O (some centres not stated) [Glucose/Dextrose] (50 µM)")
"label 1"
>>> group_label("CC[C@H]1OC(=O)[C@H](C)[C@@H](O[C@H]2C[C@@](C)(OC)[C@@H](O)[C@H](C)O2)[C@H](C)[C@@H](O[C@@H]2O[C@H](C)C[C@H](N(C)C)[C@H]2O)[C@](C)(O)C[C@@H](C)CN(C)[C@H](C)[C@@H](O)[C@]1(C)O [Azithromycin] (20 µM)")
"label 0"
>>> group_label("O=C(O)CCc1nc(-c2ccccc2)c(-c2ccccc2)o1 [Oxaprozin] (20 µM)")
"label 1"
>>> group_label("CCN(CC)CCNC(=O)c1ccc(N)cc1 [Procainamide hydrochloride] (20 µM)")
"label 0"
>>> group_label("O=C(C1CCCCC1)N1CC(=O)N2CCc3ccccc3C2C1 (configuration not stated) [Praziquantel] (20 µM)")
"label 1"

###

- System: Ruminococcus gnavus DSM 108212
- Test name: fold change of Tryptamine concentration vs plate DMSO controls (fold change (ratio)); higher = more amine produced, active = hit call of the paper (significant change in both replicates, either direction)
- Condition parameters: incubation time: 27 h, anaerobic, 37 °C
Structures can show the parent of a compound that is named as a salt.
Class 1.0: fold change of Tryptamine concentration at least 1. Class 0.0: fold change of Tryptamine concentration below 1.

>>> group_label("C[C@@H]1[C@H](O)[C@@H](C)/C=C/C=C/C=C/C=C/C=C/C=C/C=C/[C@H](O[C@@H]2O[C@H](C)[C@@H](O)[C@H](N)[C@@H]2O)C[C@@H]2O[C@](O)(C[C@@H](O)C[C@@H](O)[C@H](O)CC[C@@H](O)C[C@@H](O)CC(=O)O[C@H]1C)C[C@H](O)[C@H]2C(=O)O [Amphotericin B] (20 µM)")
1.0
>>> group_label("C[N+](C)(C)CCOC(N)=O [Carbachol chloride] (20 µM)")
1.0
>>> group_label("CCc1nn(CCCN2CCN(c3cccc(Cl)c3)CC2)c(=O)n1CCOc1ccccc1 [Nefazodone hydrochloride] (20 µM)")
0.0
>>> group_label("CC1=C(/C=C/C(C)=C/C=C/C(C)=C/C(=O)O)C(C)(C)CCC1 [Retinoic acid] (20 µM)")
1.0
>>> group_label("CCN1/C(=C/C=C/C=C/c2sc3ccccc3[n+]2CC)Sc2ccccc21 [Dithiazanine iodide] (20 µM)")
0.0
>>> group_label("O=C(Oc1cccc2cccnc12)c1ccccc1 [Benzoxiquine] (20 µM)")
1.0
>>> group_label("CC(=O)CCCCn1c(=O)c2c(ncn2C)n(C)c1=O [Pentoxifylline] (20 µM)")
0.0
>>> group_label("CN(C)[C@@H]1C(=O)C(C(N)=O)=C(O)[C@@]2(O)C(=O)C3=C(O)c4c(O)ccc(Cl)c4[C@@H](O)[C@H]3C[C@@H]12 [Demeclocycline hydrochloride] (20 µM)")
0.0
>>> group_label("CCOC(=O)/C=C(C)/C=C/C=C(C)/C=C/c1c(C)cc(OC)c(C)c1C [Etretinate] (20 µM)")
1.0
